measurementDescription: Apparent permeability from apical to basolateral side in human Caco2 cells assessed as mass balance at 100 uM after 15 to 120 mins by LC-MS analysis
Assay type: ADME, cell-based
measurementConditions: Caco-2, read-out: Activity
reportedEndpoint: recovery at 100 µM

structurestring=OC[C@@H](O)[C@@H](O)[C@H](O)[C@H](O)CO result="97 to 101%"

recovery at 100 µM lookup needed for NC(=O)[C@H](Cc1ccccc1)NC(=O)c1[nH]cnc1-c1ccccc1 , thanks.
65%

* * *

measurementDescription: Half life in human plasma at 4 uM after 180 mins by LC-MS/MS analysis
Type: ADME, cell-free
reportedEndpoint: half-life at 4 µM

half-life at 4 µM lookup needed for NC(=O)[C@H](Cc1ccccc1)NC(=O)c1[nH]cnc1-c1ccccc1 , thanks.
> 3 h

* * *

measurementDescription: Half life in NMRI mouse plasma at 4 uM after 180 mins by LC-MS/MS analysis
Format: ADME, cell-free
reportedEndpoint: half-life at 4 µM (min)
Numbers only, in min.

substance=H-RPKPQQF-NH2 number=6.4

half-life at 4 µM lookup needed for H-RPKPQQF-OH , thanks.
4.4

* * *

measurementDescription: Efflux ratio of apparent permeability from basolateral to apical over apical to basolateral side in human Caco2 cells at 100 uM after 15 to 120 mins by LC-MS analysis
Format: ADME, cell-based
measurementConditions: Caco-2
reportedEndpoint: efflux ratio at 100 µM

compound=NC(=O)[C@H](Cc1ccccc1)NC(=O)c1[nH]cnc1-c1ccccc1 reportedendpoint="efflux ratio at 100 µM" result=19

// next entry
efflux ratio at 100 µM lookup needed for OC[C@@H](O)[C@@H](O)[C@H](O)[C@H](O)CO [MANNITOL] , thanks.
1.4

* * *

For each record, write down the corresponding recovery at 100 µM.
measurementDescription: Apparent permeability from basolateral to apical side in human Caco2 cells assessed as mass balance at 100 uM after 15 to 120 mins by LC-MS analysis
Assay type: ADME, cell-based
measurementConditions: Caco-2, read-out: Activity

structurestring=OC[C@@H](O)[C@@H](O)[C@H](O)[C@H](O)CO reportedendpoint="recovery at 100 µM" result="99 to 103%"

recovery at 100 µM lookup needed for NC(=O)[C@H](Cc1ccccc1)NC(=O)c1[nH]cnc1-c1ccccc1 , thanks.
67%

* * *

measurementDescription: Apparent permeability from apical to basolateral side in human Caco2 cells at 100 uM after 15 to 120 mins by LC-MS analysis
Type: ADME, cell-based
measurementConditions: Caco-2
reportedEndpoint: Papp A→B at 100 µM (nm/s)
One number for each entry, in nm/s.

structurestring=OC[C@@H](O)[C@@H](O)[C@H](O)[C@H](O)CO number=1

Papp A→B at 100 µM lookup needed for NC(=O)[C@H](Cc1ccccc1)NC(=O)c1[nH]cnc1-c1ccccc1 , thanks.
8.4

* * *

measurementDescription: Apparent permeability from basolateral to apical side in human Caco2 cells at 100 uM after 15 to 120 mins by LC-MS analysis
Type: ADME, cell-based
measurementConditions: Caco-2
For each record, write down the corresponding Papp B→A at 100 µM.
Give the figure together with its unit, number first.

compound=NC(=O)[C@H](Cc1ccccc1)NC(=O)c1[nH]cnc1-c1ccccc1 reportedendpoint="Papp B→A at 100 µM" result="16 ×10⁻⁶ cm/s"

// next entry
Papp B→A at 100 µM lookup needed for OC[C@@H](O)[C@@H](O)[C@H](O)[C@H](O)CO [MANNITOL] , thanks.
0.2 ×10⁻⁶ cm/s
